- SYSTEM_UNDER_TEST: T1, PUF4 RNA-binding domain (Saccharomyces cerevisiae, UniProt P25339 537-888)
- T1 sequence: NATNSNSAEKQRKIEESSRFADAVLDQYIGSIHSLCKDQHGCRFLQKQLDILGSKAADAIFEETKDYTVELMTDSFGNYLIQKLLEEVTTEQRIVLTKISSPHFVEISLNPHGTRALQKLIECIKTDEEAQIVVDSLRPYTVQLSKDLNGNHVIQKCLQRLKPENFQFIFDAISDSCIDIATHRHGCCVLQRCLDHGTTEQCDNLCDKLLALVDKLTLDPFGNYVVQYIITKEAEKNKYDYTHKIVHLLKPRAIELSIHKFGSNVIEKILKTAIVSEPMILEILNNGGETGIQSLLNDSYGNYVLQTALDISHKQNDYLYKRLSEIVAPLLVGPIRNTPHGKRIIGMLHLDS
- RUN_DESCRIPTION: Mg; RNA-MaP; 20 mM Na-HEPES pH 7.4, 30 mM KOAc, 0.75 mM MgCl2, 0.1% Tween-20, 5% glycerol, 0.1 mg/mL BSA, 2 mM DTT; 25 C; 0.0125-409.6 nM protein
- CONDITIONS: tags: N-His6-TEV cleaved; C-SNAP kept, Cy3B-labelled; label: tethered on chip by stalled RNA polymerase
MEASURED_PARAMETER: Kd (nM)

BINDER	MEASUREMENT_UNITS	INEQUALITY_SYMBOL	REPORTED_VALUE
ACAAACAGACACUAUACAACAAAC (ssRNA) [Id_ii_S3_P3E.4_K3.3_C3.2_[C-2A]_[T-1G]_H3.3_A3.1_F3.1_T3.2_[T9C]]	nM	>	2300
ACAAACCGACACUAUAAAACAAAC (ssRNA) [Id_ii_S3_P3E.4_K3.3_C3.2_[T-1G]_H3.3_A3.1_F3.1_T3.2_[T9A]]	nM	>	2300
UCUCUUCGUGUUAUUAUCUCUU (ssRNA) [Ib_S1_P5E.1_K5.1_C5.1_H5.1_[T1C]_[A4G]_A5.1_F5.1_T5.1]	nM	=	2300
Ic_S2_P4E.1_K4.1_C4.1_H4.1_A4.1_[T5C]_[A6C]_[T7A]_F4.1_[T8A]_[A9T]_T4.1 (ssRNA) RNA: UUUGAUUAAUAUGAUAUCGUUCUUUCUUGUACCAAUUUCUUUCUCGAUAUCAUAUUAAUCUUU	nM	=	20.6
Ic_S2_P5E.1_K5.1_C5.1_H5.1_A5.1_[T5C]_[T6G]_[A7C]_F5.1_[T8C]_[T9C]_[A10C]_T5.1 (ssRNA) RNA: UUUGAUUAAUAUGAUAUCGUUCUUUCUUGUACGCCCCUUCUUUCUCGAUAUCAUAUUAAUCUUU	nM	=	140
Id_ii_S2_P3E.4_K3.3_C3.2_[T-1C]_H3.3_A3.1_F3.1_T3.2 (ssRNA) RNA: UUUGAUUAAUAUGAUAUCGUUCUUUCUCCACACUAUAUAUUCUUUCUCGAUAUCAUAUUAAUCUUU	nM	=	194
